# tgt: ssDNA
# procedure summary: Binding affinity to 5'-biotin labeled single-stranded DNA Py33 (unknown origin) by surface plasmon resonance method
Known Kd of a selection of compounds
// unit must come after the numeric part

Solved entries (count: 3):
Cc1ccc2nc3ccc(C)cc3c(NCCCCCCNc3c4cc(C)ccc4nc4ccc(C)cc34)c2c1    4.7 µM
Cc1ccc2nc3ccccc3c(NCCOCCOCCNc3c4ccccc4nc4ccc(C)cc34)c2c1    21.6 µM
c1ccc2c(NCCCCCCCNc3c4ccccc4nc4ccccc34)c3ccccc3nc2c1    14.7 µM

Q) Dear colleague, I am looking for the recorded Kd of the following compound: "c1ccc2c(NCCCNc3c4ccccc4nc4ccccc34)c3ccccc3nc2c1"
A) 13.7 µM

Q) Would you kindly repeat that for "Cc1ccc2nc3ccc(C)cc3c(NCCCCCCCNc3c4cc(C)ccc4nc4ccc(C)cc34)c2c1" ?
A) 8.8 µM

Q) Now try "Cc1ccc2nc3ccccc3c(NCCCCCNc3c4ccccc4nc4ccc(C)cc34)c2c1" .
A) 26.1 µM

Q) What about this compound? "Cc1ccc2nc3ccccc3c(NCCCN(C)CCCNc3c4ccccc4nc4ccc(C)cc34)c2c1"
A) 8.91 µM

Q) Another compound: "Cc1ccc2nc3ccc(C)cc3c(NCCCCCNc3c4cc(C)ccc4nc4ccc(C)cc34)c2c1"
A) 23.7 µM

====

# Test system: A-375
# procedure summary: Antiproliferative activity against human A-375 cells after 48 hrs by MTT assay
# Assay type: functional, cell-based
# test context: A-375, 48 h
Reported IC50 is given for each of the following molecules.
Number in nM, nothing else.

These recorded examples may help you get a feel for the data.
CN(CCCNc1c2ccccc2nc2ccccc12)CCCNc1c2ccccc2nc2ccccc12    120
Cc1ccc2nc3ccc(C)cc3c(NCCCCNc3c4cc(C)ccc4nc4ccc(C)cc34)c2c1    1920
Cc1ccc2nc3ccc(C)cc3c(NCCCNc3c4cc(C)ccc4nc4ccc(C)cc34)c2c1    2480

Q) Any idea what its IC50 is? The molecule is "Cc1ccc2nc3ccc(C)cc3c(NCCCN(C)CCCNc3c4cc(C)ccc4nc4ccc(C)cc34)c2c1"
A) 130

Q) # iterate: "Cc1ccc2nc3ccc(C)cc3c(NCCOCCOCCNc3c4cc(C)ccc4nc4ccc(C)cc34)c2c1"
A) 1750

Q) Can you handle "Cc1ccc2nc3ccccc3c(NCCCCNc3c4ccccc4nc4ccc(C)cc34)c2c1" next?
A) 920

Q) Check "c1ccc2c(NCCCNc3c4ccccc4nc4ccccc34)c3ccccc3nc2c1" too.
A) 2050

Q) Moving on to the next molecule: "Cc1ccc2nc3ccc(C)cc3c(NCCCCCNc3c4cc(C)ccc4nc4ccc(C)cc34)c2c1"
A) 510

Q) Then "Cc1ccc2nc3ccc(C)cc3c(NCCCNCCNCCCNc3c4cc(C)ccc4nc4ccc(C)cc34)c2c1" ?
A) 280

Q) # repeat for "Cc1ccc2nc3ccccc3c(NCCCCCNc3c4ccccc4nc4ccc(C)cc34)c2c1"
A) 1830

Q) Field entry: "Cc1ccc2nc3ccccc3c(NCCOCCOCCNc3c4ccccc4nc4ccc(C)cc34)c2c1"
A) 1880

Q) Check "c1ccc2c(NCCOCCOCCNc3c4ccccc4nc4ccccc34)c3ccccc3nc2c1" too.
A) 220

Q) Next entry: "Cc1ccc2nc3ccccc3c(NCCCN(C)CCCNc3c4ccccc4nc4ccc(C)cc34)c2c1"
A) 230

Q) Param item: "c1ccc2c(NCCCNCCNCCCNc3c4ccccc4nc4ccccc34)c3ccccc3nc2c1"
A) 430

Q) Next up: "c1ccc2c(NCCNCCNc3c4ccccc4nc4ccccc34)c3ccccc3nc2c1"
A) 6850

====

# procedure summary: Binding affinity to c-myc promoter i-motif DNA Py33 (unknown origin) at 20 uM by isothermal titration calorimetry
quantity kind: pKd
Field pKd (float): negative decimal logarithm of the concentration in molar.

Q) Find the recorded pKd belonging to "Cc1ccc2nc3ccc(C)cc3c(NCCCNCCNCCCNc3c4cc(C)ccc4nc4ccc(C)cc34)c2c1" and report it.
A) 6.19

====

# Test system: Quadruplex DNA
# procedure summary: Stabilization of 5'-FAM/3'-TAMRA labeled c-myc promoter G-quadruplex DNA FPu22T (unknown origin) assessed as change in melting temperature at 1 uM by FRET assay (reference value: 66.5 degreeC)
# Format: nucleic-acid assay
Measured ΔTm, listed per entry.
Express the result in °C but write the number alone.

Cc1ccc2nc3ccc(C(=O)NCCCN(C)C)cc3c(NCCCNCCNCCCNc3c4cc(C)ccc4nc4ccc(C(=O)NCCCN(C)C)cc34)c2c1    17.1
COC(=O)c1ccc2nc3ccc(C)cc3c(NCCOCCOCCNc3c4cc(C)ccc4nc4ccc(C(=O)OC)cc34)c2c1    14.3
Cc1ccc2nc3ccccc3c(NCCCCCNc3c4ccccc4nc4ccc(C)cc34)c2c1    11.4
Cc1ccc2nc3ccc(C)cc3c(NCCCCCNc3c4cc(C)ccc4nc4ccc(C)cc34)c2c1    11
Cc1ccc2nc3ccccc3c(NCCOCCOCCNc3c4ccccc4nc4ccc(C)cc34)c2c1    14.3
c1ccc2c(NCCCCCCCNc3c4ccccc4nc4ccccc34)c3ccccc3nc2c1    8.8

Q) Reported ΔTm, compound "Cc1ccc2nc3ccc(C)cc3c(NCCCN(C)CCCNc3c4cc(C)ccc4nc4ccc(C)cc34)c2c1" : ____
A) 15.6

Q) Also "Cc1ccc2nc3ccccc3c(NCCCN(C)CCCNc3c4ccccc4nc4ccc(C)cc34)c2c1" ?
A) 12.1

Q) Another compound to check: "c1ccc2c(NCCOCCOCCNc3c4ccccc4nc4ccccc34)c3ccccc3nc2c1"
A) 10.6

Q) Likewise for "c1ccc2c(NCCCNc3c4ccccc4nc4ccccc34)c3ccccc3nc2c1" ?
A) 14

Q) Also "Cc1ccc2nc3ccc(C)cc3c(NCCOCCOCCNc3c4cc(C)ccc4nc4ccc(C)cc34)c2c1" ?
A) 13.5

Q) // next record "Cc1ccc2nc3ccc(C)cc3c(NCCCNc3c4cc(C)ccc4nc4ccc(C)cc34)c2c1"
A) 14.1

====

# System: HeLa
# procedure summary: Antiproliferative activity against human Hela cells after 48 hrs by MTT assay
# Assay type: functional, cell-based
pIC50: −log10 of the molar value.
Please note: condition met applies when pIC50 is 6 or greater, and condition not met applies otherwise.

Examples with answers:
Cc1ccc2nc3ccccc3c(NCCOCCOCCNc3c4ccccc4nc4ccc(C)cc34)c2c1    condition met
c1ccc2c(NCCCNCCNCCCNc3c4ccccc4nc4ccccc34)c3ccccc3nc2c1    condition met
c1ccc2c(NCCOCCOCCNc3c4ccccc4nc4ccccc34)c3ccccc3nc2c1    condition met
Cc1ccc2nc3ccccc3c(NCCCN(C)CCCNc3c4ccccc4nc4ccc(C)cc34)c2c1    condition met
Cc1ccc2nc3ccc(C)cc3c(NCCCNCCNCCCNc3c4cc(C)ccc4nc4ccc(C)cc34)c2c1    condition met
Cc1ccc2nc3ccccc3c(NCCCCCNc3c4ccccc4nc4ccc(C)cc34)c2c1    condition not met

Q) Reported pIC50 at or above 6? "c1ccc2c(NCCCNc3c4ccccc4nc4ccccc34)c3ccccc3nc2c1"
A) condition not met

Q) # iterate: "CN(CCCNc1c2ccccc2nc2ccccc12)CCCNc1c2ccccc2nc2ccccc12"
A) condition met

Q) What would you report for "c1ccc2c(NCCNCCNc3c4ccccc4nc4ccccc34)c3ccccc3nc2c1" ?
A) condition not met

====

# tgt: dsDNA
# procedure summary: Binding affinity to 5'-biotin labeled duplex DNA (unknown origin) by surface plasmon resonance method
quantity kind: Kd (µM)
Please give a number only; it is taken to be in µM.

Illustrative cases are given below, each with its answer.
CN(CCCNc1c2ccccc2nc2ccccc12)CCCNc1c2ccccc2nc2ccccc12    8.1
Cc1ccc2nc3ccc(C)cc3c(NCCCCCNc3c4cc(C)ccc4nc4ccc(C)cc34)c2c1    33.6
Cc1ccc2nc3ccc(C)cc3c(NCCCN(C)CCCNc3c4cc(C)ccc4nc4ccc(C)cc34)c2c1    22.2
Cc1ccc2nc3ccccc3c(NCCCCCCCNc3c4ccccc4nc4ccc(C)cc34)c2c1    24.8
c1ccc2c(NCCOCCOCCNc3c4ccccc4nc4ccccc34)c3ccccc3nc2c1    5.8

Q) Any idea what Kd came out for "c1ccc2c(NCCCNCCNCCCNc3c4ccccc4nc4ccccc34)c3ccccc3nc2c1" on dsDNA?
A) 6

Q) And the next one, "c1ccc2c(NCCCNc3c4ccccc4nc4ccccc34)c3ccccc3nc2c1" ?
A) 10.1

====

# procedure summary: Stabilization of c-myc promoter i-motif DNA Py33 (unknown origin) assessed as decrease in positive peak intensity at pH 5.5 measured at 288 nanometer by CD spectroscopy
Active and inactive are the calls of the source. The calls are words filed in the database; no cut-off is given here.
quantity kind: Activity

Cc1ccc2nc3ccc(C(=O)NCCCN(C)C)cc3c(NCCOCCOCCNc3c4cc(C)ccc4nc4ccc(C(=O)NCCCN(C)C)cc34)c2c1    Active
Cc1ccc2nc3ccc(C(=O)NCCCN(C)C)cc3c(NCCCNCCNCCCNc3c4cc(C)ccc4nc4ccc(C(=O)NCCCN(C)C)cc34)c2c1    Active
Cc1ccc2nc3ccc(C)cc3c(NCCCNCCNCCCNc3c4cc(C)ccc4nc4ccc(C)cc34)c2c1    Active
c1ccc2c(NCCCNCCNCCCNc3c4ccccc4nc4ccccc34)c3ccccc3nc2c1    Active
